pIC50: −log10 of the molar value.
The entries that follow carry pIC50 values tested on ALK tyrosine kinase receptor (Homo sapiens, UniProt Q9UM73), drawn from several published reports.

Below, 6 compounds whose answers are already recorded.
compound: O=C(NCc1ccc(C(F)(F)F)cc1)c1ccc(-c2cnc3c(c2)N(Cc2cc(Cl)ccc2C(F)(F)F)CCN3)cc1
pIC50: 6.00 to 7.00
--
compound: CN1CCC(N2Cc3cc4nc(-c5c(NC[C@@H](O)COc6cc7c(cc6Cl)OCO7)cc[nH]c5=O)[nH]c4cc3C2=O)CC1
pIC50: 5.30 to 6.30
--
compound: COc1ccc(N2CCN(C)CC2)cc1Nc1nc(Nc2ccccc2C(N)=O)c2cc[nH]c2n1
pIC50: 8.40 to 8.90
--
compound: CN1CCC(N2C(=O)c3cc4nc(-c5c(NN)ccnc5O)[nH]c4cc3C2=O)CC1
pIC50: < 4.82
--
compound: O=C(NCc1ccc(-c2ccccc2)cc1)c1ccc(-c2cnc3c(c2)N(Cc2cc(Cl)ccc2C(F)(F)F)CCN3)cc1
pIC50: 5.00 to 6.00
--
compound: CCCN1CCC=C(c2ccc(Nc3nc(Nc4ccc(Cl)cc4C(N)=O)c4cc[nH]c4n3)c(OC)c2)C1
pIC50: 9.00 to 9.60

Asked: Sample Fc1ccc(F)c(CN2CCNc3ncc(-c4ccnc(N5CCOCC5)c4Cl)cc32)c1Cl — what was its pIC50?
Given back: 6.00 to 7.00

Asked: Sample COc1cc(N2CCC(N3CCCCC3)CC2)ccc1Nc1nc(Nc2cc(F)c(F)cc2C(N)=O)c2cc[nH]c2n1 — what was its pIC50?
Given back: 9.00 to 9.60

Asked: Sample CC(c1c(F)ccc(F)c1Cl)N1CCNc2ncc(-c3ccc(N4CCN(C)CC4)nc3)cc21 (stereo not drawn) — what was its pIC50?
Given back: > 7.00

Asked: Sample Cc1n[nH]c2nc(-c3ccc(O)cc3F)c(C#N)c(-c3ccc(N4CC[C@H](N)C4)o3)c12 — what was its pIC50?
Given back: > 7.00

* * *

pIC50: −log10 of the molar value.
The entries that follow carry pIC50 values tested on ALK tyrosine kinase receptor (Homo sapiens, UniProt Q9UM73), drawn from several published reports.

Below, 2 compounds whose answers are already recorded.
compound: CN1CCC(N2C(=O)c3cc4nc(-c5c(NNC(=O)C(O)c6ccccc6)ccnc5O)[nH]c4cc3C2=O)CC1 (centres unmarked)
pIC50: 4.82 to 5.30

compound: CC(C)Oc1nn(CCO)c2c1/C=C/c1n[nH]c3ccc(cc13)-c1cnn(C)c1O[C@@H](C(F)F)CN(C)C2 (single isomer, unassigned)
pIC50: 8.84

Asked: Sample CS(=O)(=O)c1ccc(-c2cnc3c(c2)N(Cc2ccccc2)C(=O)CN3)cc1 — what was its pIC50?
Given back: 5.00 to 6.00

Asked: Sample O=C1CNc2ncc(-c3ccc(C(=O)N4CCC[C@H]4CN4CCCC4)cc3)cc2N1Cc1cc(Cl)ccc1Cl — what was its pIC50?
Given back: > 7.00

Asked: Sample CC(c1c(F)ccc(F)c1Cl)N1C(=O)CNc2ncc(I)cc21 (centres unmarked) — what was its pIC50?
Given back: < 4.00

* * *

pIC50: −log10 of the molar value.
The entries that follow carry pIC50 values tested on ALK tyrosine kinase receptor (Homo sapiens, UniProt Q9UM73), drawn from several published reports.

Below, 6 compounds whose answers are already recorded.
compound: O=C(c1cnc2c(c1)N(Cc1cc(Cl)ccc1Cl)CCN2)N1CCC(Cc2ccccc2)CC1
pIC50: 4.00 to 5.00
--
compound: Cc1n[nH]c2nc(-c3ccc(O)cc3)c(C#N)c(-c3ccc(O)cc3)c12
pIC50: 6.00 to 7.00
--
compound: N#Cc1c(-c2ccc(O)cc2F)nc2[nH]nc(-c3ccc(-c4ccccc4)cc3)c2c1-c1ccc(N2CCNCC2)cc1
pIC50: > 7.00
--
compound: Fc1ccc(F)c(CN2CCNc3ncc(-c4ccc(N5CCOCC5)cc4)cc32)c1Cl
pIC50: > 7.00
--
compound: O=C(c1cccc(-c2cnc3c(c2)N(Cc2cc(Cl)ccc2C(F)(F)F)CCN3)c1)N1CCN(c2ncccn2)CC1
pIC50: 6.00 to 7.00
--
compound: CN1CCC(N2Cc3cc4nc(-c5c(NC[C@@H](O)COc6cc(C(F)(F)F)ccc6Cl)cc[nH]c5=O)[nH]c4cc3C2=O)CC1
pIC50: 4.82 to 5.30

Asked: pIC50 of CC(C)(C)C(=O)Oc1ccc(-c2nc3[nH]nc(N)c3c(-c3ccc(N4CCNCC4)cc3)c2C#N)c(F)c1 on ALK tyrosine kinase receptor (Homo sapiens, UniProt Q9UM73)?
Given back: 6.00 to 7.00

Asked: pIC50 of NS(=O)(=O)c1ccc(CCNC(=O)c2ccc(-c3cnc4c(c3)N(Cc3cc(Cl)ccc3C(F)(F)F)CCN4)cc2)cc1 on ALK tyrosine kinase receptor (Homo sapiens, UniProt Q9UM73)?
Given back: 6.00 to 7.00

Asked: pIC50 of COc1cc(N2CCN(C(C)C)CC2)ccc1Nc1nc(Nc2ccc(F)cc2C(N)=O)c2cc[nH]c2n1 on ALK tyrosine kinase receptor (Homo sapiens, UniProt Q9UM73)?
Given back: 9.00 to 9.60

Asked: pIC50 of O=C1c2cc3nc(-c4c(NC[C@@H](O)c5cccc(Cl)c5)cc[nH]c4=O)[nH]c3cc2C(=O)N1CC1CCN(CCO)CC1 on ALK tyrosine kinase receptor (Homo sapiens, UniProt Q9UM73)?
Given back: 5.30 to 6.30

Asked: pIC50 of O=C(c1cnc2c(c1)N(Cc1cc(Cl)ccc1Cl)CCN2)N1CCN(c2ccccc2C(F)(F)F)CC1 on ALK tyrosine kinase receptor (Homo sapiens, UniProt Q9UM73)?
Given back: 4.00 to 5.00

Asked: pIC50 of N#Cc1c(-c2cncs2)nc2[nH]nc(-c3cccs3)c2c1-c1ccc(N2CCNCC2)cc1 on ALK tyrosine kinase receptor (Homo sapiens, UniProt Q9UM73)?
Given back: 5.00 to 6.00

Asked: pIC50 of CC(C)(CO)CN1C(=O)c2cc3nc(-c4c(NC[C@@H](O)c5cccc(Cl)c5)cc[nH]c4=O)[nH]c3cc2C1=O on ALK tyrosine kinase receptor (Homo sapiens, UniProt Q9UM73)?
Given back: < 4.82

Asked: pIC50 of CCCN1CCC(N2CCc3cc(OC)c(Nc4nc(Nc5cccc(F)c5C(N)=O)c5cc[nH]c5n4)cc3C2)CC1 on ALK tyrosine kinase receptor (Homo sapiens, UniProt Q9UM73)?
Given back: 6.70 to 8.30

Asked: pIC50 of Cc1cc(-c2n[nH]c3nc(-c4ccc(O)cc4F)c(C#N)c(C)c23)no1 on ALK tyrosine kinase receptor (Homo sapiens, UniProt Q9UM73)?
Given back: 6.00 to 7.00

* * *

The entries that follow carry IC50 values tested on ALK tyrosine kinase receptor (Homo sapiens, UniProt Q9UM73), drawn from several published reports.

Below, 5 compounds whose answers are already recorded.
compound: COc1cc2c(cc1Nc1nc(Nc3cccc4c3C(=O)NC4)c3cc[nH]c3n1)N(C(=O)CN1CCCC1)CCC2
IC50: 0.000251 to 0.001 µM

compound: O=C(NC(c1ccccc1)c1ccccc1)c1ccc(-c2cnc3c(c2)N(Cc2cc(Cl)ccc2C(F)(F)F)CCN3)cc1
IC50: 1 to 10 µM

compound: O=C(c1cnc2c(c1)N(Cc1cc(Cl)ccc1Cl)CCN2)N1CCN(c2ncnc3ccsc23)CC1
IC50: 1 to 10 µM

compound: O=C(c1ccc(-c2cnc3c(c2)N(Cc2cc(Cl)ccc2C(F)(F)F)CCN3)cc1)N1CCN(CCc2ccccc2)CC1
IC50: 0.1 to 1 µM

compound: CNC(=O)c1c(F)cccc1Nc1nc(Nc2cc3c(cc2OC)CCCN3C(=O)CN2CCCCC2)nc2[nH]ccc12
IC50: 0.00501 to 0.2 µM

Asked: IC50 of Cc1n[nH]c2nc(-c3ccc(O)cc3F)c(C#N)c(-c3ccc(N4CCC(CN)C4)o3)c12 (stereo not shown) on ALK tyrosine kinase receptor (Homo sapiens, UniProt Q9UM73)?
Given back: < 0.1 µM

Asked: IC50 of CCCN1CCC=C(c2ccc(Nc3nc(Nc4cccc(F)c4C(N)=O)c4cc[nH]c4n3)c(OC)c2)C1 on ALK tyrosine kinase receptor (Homo sapiens, UniProt Q9UM73)?
Given back: 0.000251 to 0.001 µM

* * *

The entries that follow carry pIC50 values tested on ALK tyrosine kinase receptor (Homo sapiens), drawn from several published reports.
pIC50: −log10 of the molar value.

Below, 3 compounds whose answers are already recorded.
compound: O=C(NCc1cccc(Cl)c1)c1cccc(-c2cnc3c(c2)N(Cc2cc(Cl)ccc2C(F)(F)F)CCN3)c1
pIC50: 5.00 to 6.00

compound: CN1CCN(c2ccc(-c3c(C#N)c(-c4ccc(O)cc4F)nc4[nH]ncc34)o2)CC1
pIC50: > 7.00

compound: CN1CCN(C(=O)c2ccc(-c3cnc4c(c3)N(Cc3cc(F)c(F)cc3F)C(=O)CN4)cc2)CC1
pIC50: 4.00 to 5.00

Asked: pIC50 of COc1ccc(CN2CCN(C(=O)c3ccc(-c4cnc5c(c4)N(Cc4cc(Cl)ccc4C(F)(F)F)CCN5)cc3)CC2)cc1 on ALK tyrosine kinase receptor (Homo sapiens)?
Given back: 6.00 to 7.00

Asked: pIC50 of CCOC(=O)c1ccc(-c2cnc3c(c2)N(Cc2ccccc2)C(=O)CN3)cc1 on ALK tyrosine kinase receptor (Homo sapiens)?
Given back: 4.00 to 5.00

Asked: pIC50 of COc1cc2c(cc1Nc1nc(Nc3cccc(F)c3C(=O)NC(C)C)c3cc[nH]c3n1)N(C(=O)CN(C)C)CC2 on ALK tyrosine kinase receptor (Homo sapiens)?
Given back: 9.00 to 9.60
